Tested on: U-251
Assay: NCI tumour cell line growth inhibition, 48 h
Active and inactive are the calls of the source. Cut-off read from the data, not from the text of the source: active = GI50 up to about 1.1 µM and inactive = higher. Residues, ends and D or L forms follow the SMILES beside them. *: point of attachment. Cbz = O=C(OCc1ccccc1)*; Boc = CC(C)(C)OC(=O)*; OSu = O=C1CCC(=O)N1O*; Bn = c1ccc(C*)cc1

{"compound": "CC(NNC(=O)c1cc[n+]([BH2-]C#N)cc1)c1ccc(F)cc1 (centres undefined)", "target-entity": "U-251", "GI50": "> 100 µM (inactive)"}
{"compound": "CCOC(=O)N1C=CC(=C2C(=C3C=CN(C(=O)OCC)C=C3)C(=C3C=CN(C(=O)OCC)C=C3)C2=C2C=CN(C(=O)OCC)C=C2)C=C1", "target-entity": "U-251", "GI50": "13.7 µM (inactive)"}
{"compound": "CC(C)(C)C(=O)C(c1ccc(-c2cscn2)cc1)c1ccc(-c2cscn2)cc1", "target-entity": "U-251", "GI50": "20.7 µM (inactive)"}
{"compound": "COc1ccc(-c2cc(C(O)C3CCCCN3)c3ccccc3n2)cc1 (centres undefined)", "target-entity": "U-251", "GI50": "3.63 µM (inactive)"}
{"compound": "COC1(c2cccs2)c2ccccc2C(OC)(c2cccs2)c2ccccc21 (centres undefined)", "target-entity": "U-251", "GI50": "42.4 µM (inactive)"}
{"compound": "COc1cc(C2c3[nH]c4ccccc4c3[C@@H](Nc3ccc(F)cc3)[C@H]3COC(=O)N23)cc(OC)c1O (some centres undefined)", "target-entity": "U-251", "GI50": "1.45 µM (inactive)"}
{"compound": "COc1ccc(/C=N/n2c(=O)[nH]c3ccccc3c2=O)cc1", "target-entity": "U-251", "GI50": "> 100 µM (inactive)"}
{"compound": "CSc1nc2c(c(=O)[nH]1)N=C(c1ccc([N+](=O)[O-])cc1)CC(c1ccccc1)N2 (centres undefined)", "target-entity": "U-251", "GI50": "33.6 µM (inactive)"}
{"compound": "CCN(CC)C1C(=O)NC1C#Cc1ccccc1 (centres undefined)", "target-entity": "U-251", "GI50": "> 100 µM (inactive)"}
{"compound": "O=C(O)CCSC(=O)Nc1ccccc1", "target-entity": "U-251", "GI50": "> 100 µM (inactive)"}
{"compound": "C[n+]1cccc(NC(=O)c2ccc(NC(=O)C34CCC(C(=O)Nc5ccc(C(=O)Nc6ccc[n+](C)c6)cc5)(CC3)CC4)cc2)c1", "target-entity": "U-251", "GI50": "27.9 µM (inactive)"}
{"compound": "c1cnc(N2CCN(Cc3c[nH]c4ccccc34)CC2)nc1", "target-entity": "U-251", "GI50": "37.1 µM (inactive)"}
{"compound": "CC1(C)CCCC2OC2CCC(C)(C)C1=O (centres undefined)", "target-entity": "U-251", "GI50": "> 100 µM (inactive)"}
{"compound": "COc1ccccc1/N=N/c1c(O)c(S(=O)(=O)O)cc2cc(S(=O)(=O)O)ccc12", "target-entity": "U-251", "GI50": "> 100 µM (inactive)"}
{"compound": "COc1cc(/C=N/c2nncs2)ccc1O", "target-entity": "U-251", "GI50": "> 100 µM (inactive)"}
{"compound": "CC(C)(C)c1ccc(Oc2ccc(C#N)c(C#N)c2)c(C(C)(C)C)c1", "target-entity": "U-251", "GI50": "33.7 µM (inactive)"}
{"compound": "CN(CC(=O)O)S(=O)(=O)c1ccc(F)cc1", "target-entity": "U-251", "GI50": "> 100 µM (inactive)"}
{"compound": "Cc1cc2c(=O)cc(-c3ccc(C(=O)O)cc3)oc2c(C(N)=O)c1C", "target-entity": "U-251", "GI50": "> 100 µM (inactive)"}
{"compound": "CC(C)(C)OC(=O)NC(Cc1ccc(OCc2ccccc2)cc1)C(=O)NC(CCCCNC(=O)OCc1ccccc1)C(=O)NC(CCCCNC(=O)OCc1ccccc1)C(=O)ON1C(=O)CCC1=O (centres undefined) (Boc-Tyr(Bn)-Lys(Cbz)-Lys(Cbz)-OSu; configuration not given here)", "target-entity": "U-251", "GI50": "16.3 µM (inactive)"}
